TESTED SYSTEM: T1, Rdh54/Tid1 (Saccharomyces cerevisiae, UniProt P38086 1-958)
T1 sequence: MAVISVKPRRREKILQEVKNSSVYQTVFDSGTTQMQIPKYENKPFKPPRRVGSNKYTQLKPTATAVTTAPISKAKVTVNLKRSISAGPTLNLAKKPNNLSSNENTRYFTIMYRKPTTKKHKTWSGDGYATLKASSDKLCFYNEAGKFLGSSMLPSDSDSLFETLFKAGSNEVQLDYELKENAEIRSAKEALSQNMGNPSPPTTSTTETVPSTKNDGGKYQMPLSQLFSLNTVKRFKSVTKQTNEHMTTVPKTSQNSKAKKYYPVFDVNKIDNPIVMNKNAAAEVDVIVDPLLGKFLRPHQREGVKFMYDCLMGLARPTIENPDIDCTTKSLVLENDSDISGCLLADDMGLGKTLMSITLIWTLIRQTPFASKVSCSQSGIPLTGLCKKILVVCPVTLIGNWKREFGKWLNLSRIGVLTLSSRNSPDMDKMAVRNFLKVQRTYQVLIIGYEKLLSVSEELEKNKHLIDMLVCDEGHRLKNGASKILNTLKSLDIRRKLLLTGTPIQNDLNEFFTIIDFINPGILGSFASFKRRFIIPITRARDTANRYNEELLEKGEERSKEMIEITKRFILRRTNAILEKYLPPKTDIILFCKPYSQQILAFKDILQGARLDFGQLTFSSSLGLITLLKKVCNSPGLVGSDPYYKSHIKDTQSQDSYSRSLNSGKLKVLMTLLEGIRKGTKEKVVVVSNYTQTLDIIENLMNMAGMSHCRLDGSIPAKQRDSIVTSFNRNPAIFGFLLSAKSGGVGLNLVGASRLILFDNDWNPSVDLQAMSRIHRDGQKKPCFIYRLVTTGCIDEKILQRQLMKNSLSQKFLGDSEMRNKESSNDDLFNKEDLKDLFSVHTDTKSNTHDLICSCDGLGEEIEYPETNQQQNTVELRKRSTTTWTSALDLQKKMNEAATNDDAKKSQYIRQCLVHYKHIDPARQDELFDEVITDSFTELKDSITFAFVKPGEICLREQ
PROTOCOL DETAILS: fluorescence polarization
pKd: −log10 of the molar value.

BINDER	pKd
84-mer ssDNA (ssDNA) DNA: GGTAGCGGTTGGGTGAGTGGTGGGGAGGGTCGGGAGGTGGCGTAGAAACATGATAGGAATGTGAATGAATGAAGTACAAGTAAA	6.64
